assay: Preliminary cassette pharmacokinetic study in catheterized conscious rats; type: in vivo; conditions: plasma; rat, oral, cassette dosing; read-out: Pharmacokinetics in Rat Oral t1/2
Recorded half-life, one value per entry.
Provide the reading as a plain figure in h.

COc1cc(CNC(=O)NCc2ccc(C(F)(F)F)cc2)c(Br)cc1OCC(O)CO (racemic) : 1.08
COc1cc(CNC(=O)NCc2ccc(C(F)(F)F)cc2)c(Cl)cc1OCC(O)CO (racemic) : 1.3
COc1cc(CNC(=O)NCc2ccc(C(F)(F)F)cc2)c(Br)cc1OC[C@H](O)CO [(R)-(−)6d] : 4.43

# ---- query compound ----
q: Please report the recorded half-life for COc1cc(CNC(=O)NCc2ccc(C(F)(F)F)cc2)c(Cl)cc1OC[C@H](O)CO [(R)-(−)6c] .
a: 7.7

###

Recorded IC50, one value per entry.
biological target: TRPV1 (Rattus norvegicus, UniProt O35433); construct: Ca^2+ Fluorescence Measurements in Cultured Rat Trigeminal Ganglia; endogenous in cells; assay: Ca2+ fluorescence measurements in cultured rat trigeminal ganglia (capsaicin-evoked [Ca2+]i mobilization); conditions: 30 nM capsaicin, rat trigeminal neuron cells; read-out: IC50 of inhibiting capsaicin-evoked [Ca2+]i mobilization
Sequence (O35433 whole entry): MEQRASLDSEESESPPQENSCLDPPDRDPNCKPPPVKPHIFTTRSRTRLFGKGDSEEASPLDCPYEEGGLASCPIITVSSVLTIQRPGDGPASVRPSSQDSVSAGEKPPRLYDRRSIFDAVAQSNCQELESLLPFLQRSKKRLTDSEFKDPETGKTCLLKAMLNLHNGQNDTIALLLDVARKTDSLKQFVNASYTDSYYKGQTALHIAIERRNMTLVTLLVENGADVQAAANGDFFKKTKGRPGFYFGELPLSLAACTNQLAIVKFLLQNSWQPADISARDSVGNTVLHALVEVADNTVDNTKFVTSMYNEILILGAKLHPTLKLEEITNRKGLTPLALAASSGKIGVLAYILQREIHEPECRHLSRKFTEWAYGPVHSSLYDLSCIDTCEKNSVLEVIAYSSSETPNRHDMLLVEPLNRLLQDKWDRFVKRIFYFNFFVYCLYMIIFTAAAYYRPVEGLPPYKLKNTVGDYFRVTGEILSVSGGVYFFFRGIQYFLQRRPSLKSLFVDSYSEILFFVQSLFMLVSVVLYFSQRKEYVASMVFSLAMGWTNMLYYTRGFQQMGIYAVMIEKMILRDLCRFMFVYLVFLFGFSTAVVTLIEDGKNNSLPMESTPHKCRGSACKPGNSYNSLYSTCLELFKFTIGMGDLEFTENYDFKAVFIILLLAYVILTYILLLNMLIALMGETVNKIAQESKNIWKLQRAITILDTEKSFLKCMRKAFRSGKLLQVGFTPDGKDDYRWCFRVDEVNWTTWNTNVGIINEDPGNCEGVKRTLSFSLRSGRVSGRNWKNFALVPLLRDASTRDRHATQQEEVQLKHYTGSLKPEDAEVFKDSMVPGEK

q: Please report the recorded IC50 for COc1cc(CNC(=O)NCc2ccc(C(F)(F)F)cc2)c(-c2cccnc2)cc1OCC(O)CO (centres unmarked) .
a: > 1000 nM

q: Please report the recorded IC50 for `COc1cc(CNC(=O)NCc2ccc(C(F)(F)F)cc2)c(Cl)cc1OCCCO` .
a: > 1000 nM

q: Please report the recorded IC50 for COc1cc(CNC(=O)NCc2ccc(C(F)(F)F)cc2)c(Br)cc1OCC(O)CO (racemic) .
a: 80 nM

q: Please report the recorded IC50 for COc1cc(CNC(=O)NCc2ccc(C(F)(F)F)cc2)c(Cl)cc1OC[C@@H](O)CO [(S)-(+)6c] .
a: > 1000 nM

q: Please report the recorded IC50 for `COc1cc(CNC(=O)NCc2ccc(C(F)(F)F)cc2)c(Cl)cc1OCCO` .
a: 164 nM
